molecular target: Sucrase-isomaltase, intestinal (Rattus norvegicus, UniProt P23739)
Sequence (P23739 1-1013 limits assumed): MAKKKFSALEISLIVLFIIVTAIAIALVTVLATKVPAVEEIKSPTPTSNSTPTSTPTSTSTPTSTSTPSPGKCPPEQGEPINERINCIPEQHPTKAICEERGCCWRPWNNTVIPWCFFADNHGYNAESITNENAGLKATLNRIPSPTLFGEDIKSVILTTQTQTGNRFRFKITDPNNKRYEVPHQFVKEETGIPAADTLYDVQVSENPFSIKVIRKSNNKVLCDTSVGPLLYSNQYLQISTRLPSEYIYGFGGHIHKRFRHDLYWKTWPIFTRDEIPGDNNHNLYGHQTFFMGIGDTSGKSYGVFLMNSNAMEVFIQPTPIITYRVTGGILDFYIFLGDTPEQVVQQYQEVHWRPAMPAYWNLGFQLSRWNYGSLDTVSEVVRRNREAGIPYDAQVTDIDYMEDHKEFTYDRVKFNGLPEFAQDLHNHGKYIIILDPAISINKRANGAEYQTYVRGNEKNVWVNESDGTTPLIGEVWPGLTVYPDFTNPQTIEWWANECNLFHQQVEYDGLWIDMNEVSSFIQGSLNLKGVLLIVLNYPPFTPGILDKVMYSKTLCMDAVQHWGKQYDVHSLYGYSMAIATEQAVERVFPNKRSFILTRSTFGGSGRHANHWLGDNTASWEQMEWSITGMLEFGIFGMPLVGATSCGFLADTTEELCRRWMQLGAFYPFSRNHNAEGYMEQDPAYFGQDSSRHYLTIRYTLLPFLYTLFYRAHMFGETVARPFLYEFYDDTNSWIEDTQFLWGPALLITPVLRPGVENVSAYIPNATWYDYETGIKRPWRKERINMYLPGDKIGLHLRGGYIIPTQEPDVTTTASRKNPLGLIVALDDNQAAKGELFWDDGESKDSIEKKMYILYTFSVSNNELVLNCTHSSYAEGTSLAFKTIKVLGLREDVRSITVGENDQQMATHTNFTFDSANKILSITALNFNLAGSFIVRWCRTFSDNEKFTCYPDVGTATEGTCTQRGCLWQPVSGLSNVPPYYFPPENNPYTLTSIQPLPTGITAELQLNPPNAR
Sequence (P23739 1014-1841 limits assumed): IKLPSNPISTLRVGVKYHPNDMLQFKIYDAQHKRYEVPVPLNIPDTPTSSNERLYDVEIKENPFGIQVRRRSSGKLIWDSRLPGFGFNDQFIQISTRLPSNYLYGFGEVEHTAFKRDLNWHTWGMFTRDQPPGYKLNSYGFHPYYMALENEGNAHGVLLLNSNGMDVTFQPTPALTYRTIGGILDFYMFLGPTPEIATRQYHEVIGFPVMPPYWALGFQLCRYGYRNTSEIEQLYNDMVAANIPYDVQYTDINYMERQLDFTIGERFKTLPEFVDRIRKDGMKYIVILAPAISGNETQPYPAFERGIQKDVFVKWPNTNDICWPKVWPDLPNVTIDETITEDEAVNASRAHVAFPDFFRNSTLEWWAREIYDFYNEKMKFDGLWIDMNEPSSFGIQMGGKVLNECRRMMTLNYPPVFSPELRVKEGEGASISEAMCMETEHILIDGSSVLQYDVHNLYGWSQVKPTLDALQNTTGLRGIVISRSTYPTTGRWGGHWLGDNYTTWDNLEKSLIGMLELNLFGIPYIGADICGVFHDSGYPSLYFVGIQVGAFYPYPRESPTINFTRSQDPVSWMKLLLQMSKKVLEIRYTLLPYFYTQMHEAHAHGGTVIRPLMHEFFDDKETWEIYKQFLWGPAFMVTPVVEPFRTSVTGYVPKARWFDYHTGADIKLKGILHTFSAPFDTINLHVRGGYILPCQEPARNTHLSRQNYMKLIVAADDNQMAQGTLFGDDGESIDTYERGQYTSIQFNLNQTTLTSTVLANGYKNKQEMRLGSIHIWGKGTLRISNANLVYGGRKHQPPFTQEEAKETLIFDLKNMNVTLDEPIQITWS

[
  {
    "smiles-string": "OC[C@H]1NCC[C@H](O)[C@@H]1O",
    "IC50 [µM]": 6
  }
]

###

experiment: Inhibition of rice alpha-glucosidase by glucose B-test; design: species or system Oryza sativa
endpoint: IC50 (µM)

[
  {
    "smiles-string": "OC[C@H]1NCC[C@@H](O)[C@@H]1O",
    "endpoint": "IC50",
    "val": 320
  },
  {
    "smiles-string": "OC[C@H]1NCC[C@H](O)[C@@H]1O",
    "endpoint": "IC50",
    "val": 120
  }
]

###

experiment: Inhibition of rat liver beta-galactosidase by spectrophotometry

[
  {
    "molecule": "OC[C@H]1NCC[C@@H](O)[C@@H]1O [FAGOMINE]",
    "IC50": "15 µM"
  },
  {
    "molecule": "OC[C@H]1NCC[C@H](O)[C@@H]1O",
    "IC50": "4 µM"
  }
]
